Exercise: state measured pIC50 for each of the molecules provided.
# tgt: Cbl-b (Homo sapiens)
# Sequence (Q13191 36-427): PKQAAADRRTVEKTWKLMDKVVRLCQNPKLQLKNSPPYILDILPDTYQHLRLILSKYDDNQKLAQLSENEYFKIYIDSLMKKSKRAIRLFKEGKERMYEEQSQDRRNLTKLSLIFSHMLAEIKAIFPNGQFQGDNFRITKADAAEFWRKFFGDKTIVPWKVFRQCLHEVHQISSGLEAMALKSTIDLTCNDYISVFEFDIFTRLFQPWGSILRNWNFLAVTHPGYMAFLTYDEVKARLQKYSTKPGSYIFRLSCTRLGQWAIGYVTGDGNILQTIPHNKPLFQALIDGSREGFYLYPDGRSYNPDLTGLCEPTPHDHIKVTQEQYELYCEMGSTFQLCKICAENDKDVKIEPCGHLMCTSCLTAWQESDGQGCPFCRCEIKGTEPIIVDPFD
# experiment-notes: Cbl-b inhibition assay (Cbl-b activity assay, FRET, Biological Example 1; 100 mM NaCl, 60 nM Src kinase)
# Assay type: biochemical
# condition-notes: upper bound stated in text lists; read-out: IC50 values in the Cbl-b inhibition assay of Biological Example 1
pIC50: −log10 of the molar value.

Lab note: measured pIC50 of `C[C@H](Cc1nncn1C)c1cccc(N2Cc3c(cc(C(=O)O)cc3C(F)(F)F)C2=O)c1` was ≥ 5.00

Lab note: measured pIC50 of CC(Sc1nncn1C)c1cccc(NC(=O)c2ccc3c(n2)CCCC3)c1 (stereo not drawn) was ≥ 5.00

Lab note: measured pIC50 of `CN[C@H]1CCN(C(=O)c2ccnc(C(=O)Nc3cccc([C@H](C)Cc4nncn4C)c3)c2)C1` was ≥ 5.00

Lab note: measured pIC50 of `C[C@H](Sc1nncn1C)c1ccnc(NC(=O)c2cccc(C3CC3)n2)c1` was ≥ 5.00

Lab note: measured pIC50 of `Cc1cc(C(=O)Nc2cccc([C@H](C)Cc3nncn3C)c2)nc(C2CC2)n1` was ≥ 7.00

Lab note: measured pIC50 of Cc1conc1C[C@H](C)c1cccc(NC(=O)c2ccnc(C(F)(F)F)n2)c1 [Compound 213b] was ≥ 5.00

Lab note: measured pIC50 of `Cn1cnnc1CC1(c2cccc(N3Cc4c(cc(OC5CC5)cc4C(F)(F)F)C3=O)c2)COC1` was ≥ 7.00

Lab note: measured pIC50 of `Cn1cnnc1CC1(c2cccc(NC(=O)c3cc(C4CC4)nc4ccnn34)c2)COC1` was ≥ 7.00

Lab note: measured pIC50 of `COC[C@@H]1CN(Cc2cc3c(c(C(F)(F)F)c2)CN(c2cccc(C4(Cc5nncn5C)COC4)c2)C3=O)CCO1` was ≥ 7.00

Lab note: measured pIC50 of `C[C@H](Sc1nnc[nH]1)c1cccc(NC(=O)c2cc3ccccc3cn2)c1` was ≥ 6.00

Lab note: measured pIC50 of `Cc1cc(C(=O)Nc2cccc([C@H](C)Sc3nncn3C)c2)[nH]c(=O)c1` was ≥ 5.00

Lab note: measured pIC50 of Cc1c[nH]nc1S[C@@H](C)c1ccnc(NC(=O)c2ccc3ccccc3n2)c1 [Compound 128a] was ≥ 5.00

Lab note: measured pIC50 of `Cn1cnnc1CC1(c2cccc(N3Cc4c(cc(CN5CC[C@H](F)C5)cc4C4CC4)C3=O)c2)COC1` was ≥ 7.00

Lab note: measured pIC50 of `COC1CCN(Cc2cc3c(c(C(F)(F)F)c2)CN(c2cccc(C4(Cc5nncn5C)COC4)c2)C3=O)CC1` was ≥ 7.00

Lab note: measured pIC50 of C[C@@H](Sc1nncn1C)c1cc(F)cc(N2Cc3c(cccc3C(F)(F)F)C2=O)c1 [Compound 168b] was ≥ 5.00

Lab note: measured pIC50 of `Cn1cnnc1CC1(c2cccc(N3Cc4c(cc(CN5C6CCC5CC6)cc4C(F)(F)F)C3=O)c2)COC1` was ≥ 7.00

Lab note: measured pIC50 of `Cn1cnnc1CC1(c2cccc(N3Cc4c(cc(C5CCC5)cc4C(F)(F)F)C3=O)c2)COC1` was ≥ 7.00

Lab note: measured pIC50 of Cn1cnnc1CC1(c2cccc(N3Cc4c(cc(CN5CCOC(CC(F)(F)F)C5)cc4C(F)(F)F)C3=O)c2)COC1 (stereo not drawn) was ≥ 7.00

Lab note: measured pIC50 of `C[C@H]1CN(C)CCN1c1cc2c(c(C(F)(F)F)c1)CN(c1cccc(C3(Cc4nncn4C)COC3)c1)C2=O` was ≥ 7.00

Lab note: measured pIC50 of C[C@@H](Sc1nncn1C)c1ccnc(N2Cc3c(cccc3C(F)(F)F)C2=O)c1 [Compound 172b] was ≥ 5.00

Lab note: measured pIC50 of C[C@H](Cc1nncn1C)c1cccc(NC(=O)c2cc(C(=O)N3CC(O)C(F)(F)C3)ccn2)c1 (stereo partly drawn) was ≥ 6.30

Origin of values: patent US20220324835A1
